Recorded remaining activity at up to 5 µM values for a group of molecules are listed next.
Molecular target: AR (androgen receptor) protein in VCaP cells (Homo sapiens)
Construct: endogenous in cells; host or cells: VCaP cells
Assay: VCAP AR Degradation Assay
Assay type: cell-based
Conditions: 24 h, AR ELISA, top concentration 5 μM, read-out: Y (lowest measured AR level normalized to DMSO control, AR degradation efficiency)
Experimental: VCAP AR Degradation Assay. Test compounds were pre-dispensed into a Corning CellBind 96-well clear bottom plate (Cat #3300) using an acoustic dispenser to make a 10-point concentration series at 1:3 dilution for each compound. The final top concentration of each compound was 5 μM. DMSO at a final concentration of 0.1% was used as a control. […] AR levels in compound-treated wells were normalized to that of DMSO control and expressed as percent of control (PoC) (y). […]
Structures can show the parent of a compound that is named as a salt.
experimental endpoint: remaining activity at up to 5 µM

{"columns": ["molecule", "result value"],
 "data": [
  ["C[C@@H]1CN(CCO[C@H]2CC[C@H](N3C(=S)N(c4cnc(C#N)c(C(F)(F)F)c4)C(=O)C3(C)C)CC2)C[C@H](C)N1CC(=O)Nc1cccc2c(C3CCC(=O)NC3=O)nn(C)c12 (some centres unmarked) [Cmpd 4, hydrochloride]", "25 to 30%"],
  ["Cn1nc(C2CCC(=O)NC2=O)c2cccc(NC(=O)CN3CCN(CCC[C@H]4CC[C@H](N5C(=S)N(c6cnc(C#N)c(C(F)(F)F)c6)C(=O)C5(C)C)CC4)C[C@@H]3C(F)(F)F)c21 (some centres unmarked)", "0 to 25%"],
  ["C[C@@H]1CN(CCO[C@H]2CC[C@H](N3C(=S)N(c4ccc(C#N)c(C(F)(F)F)c4)C(=O)C3(C)C)CC2)C[C@H](C)N1CC(=O)Nc1cccc2c(C3CCC(=O)NC3=O)nn(C)c12 (some centres unmarked) [Cmpd 1, hydrochloride]", "0 to 25%"],
  ["C[C@@H]1CN(CCC[C@H]2CC[C@H](N3C(=S)N(c4cnc(C#N)c(Cl)c4)C(=O)C3(C)C)CC2)C[C@H](C)N1CC(=O)Nc1cccc2c(C3CCC(=O)NC3=O)nn(C)c12 (some centres unmarked)", "30 to 50%"],
  ["Cn1nc(C2CCC(=O)NC2=O)c2cccc(NC(=O)CN3CCN(CCO[C@H]4CC[C@H](N5C(=S)N(c6cnc(C#N)c(C(F)(F)F)c6)C(=O)C5(C)C)CC4)C[C@@H]3C(F)(F)F)c21 (some centres unmarked)", "0 to 25%"]
]}

* * *

target: AR (androgen receptor) protein in VCaP cells (Homo sapiens, UniProt P10275); construct: endogenous in cells; host or cells: VCaP cells; experiment: VCAP AR Degradation Assay; assay type: cell-based; settings: 24 h, AR ELISA, top concentration 5 μM, read-out: Y (lowest measured AR level normalized to DMSO control, AR degradation efficiency)
Sequence (P10275 whole entry): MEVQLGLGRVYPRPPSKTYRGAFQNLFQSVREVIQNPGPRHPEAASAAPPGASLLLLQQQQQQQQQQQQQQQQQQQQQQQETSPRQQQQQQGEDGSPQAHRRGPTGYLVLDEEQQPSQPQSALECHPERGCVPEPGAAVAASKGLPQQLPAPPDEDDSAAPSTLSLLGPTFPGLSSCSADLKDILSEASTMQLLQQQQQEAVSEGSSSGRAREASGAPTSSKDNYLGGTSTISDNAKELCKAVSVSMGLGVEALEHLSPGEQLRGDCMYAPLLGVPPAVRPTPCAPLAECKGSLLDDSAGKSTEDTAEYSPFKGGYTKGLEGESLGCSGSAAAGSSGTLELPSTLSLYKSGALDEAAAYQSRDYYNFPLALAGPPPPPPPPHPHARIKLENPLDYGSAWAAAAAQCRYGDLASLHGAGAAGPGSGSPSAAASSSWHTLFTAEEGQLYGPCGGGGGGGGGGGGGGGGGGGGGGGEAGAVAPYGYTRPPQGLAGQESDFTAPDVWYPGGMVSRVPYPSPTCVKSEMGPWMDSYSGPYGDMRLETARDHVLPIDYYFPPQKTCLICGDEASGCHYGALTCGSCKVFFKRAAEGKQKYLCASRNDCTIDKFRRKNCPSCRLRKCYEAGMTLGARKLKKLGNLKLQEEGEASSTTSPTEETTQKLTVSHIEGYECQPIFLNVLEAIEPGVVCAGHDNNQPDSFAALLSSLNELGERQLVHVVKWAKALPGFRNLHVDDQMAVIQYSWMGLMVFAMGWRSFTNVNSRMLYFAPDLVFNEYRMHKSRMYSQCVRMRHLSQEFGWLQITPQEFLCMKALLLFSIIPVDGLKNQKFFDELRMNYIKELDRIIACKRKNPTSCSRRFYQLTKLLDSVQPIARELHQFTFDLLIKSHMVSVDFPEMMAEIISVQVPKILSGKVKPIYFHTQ
Counter-ions that a name gives are not always drawn.
As shown below, each of these compounds has a reported remaining activity at up to 5 µM value.

{"columns": ["compound", "assayed system", "remaining activity at up to 5 µM"],
 "data": [
  ["C[C@@H]1CN(CCCO[C@H]2CC[C@H](N3C(=S)N(c4cnc(C#N)c(C(F)(F)F)c4)C(=O)C3(C)C)CC2)C[C@H](C)N1CC(=O)Nc1cccc2c(C3CCC(=O)NC3=O)nn(C)c12 (stereo partly drawn) [Cmpd 7, hydrochloride]", "AR (androgen receptor) protein in VCaP cells (Homo sapiens, UniProt P10275)", "0 to 25%"],
  ["C[C@@H]1C[C@H](OCCO[C@H]2CC[C@H](N3C(=S)N(c4ccc(C#N)c(C(F)(F)F)c4)C(=O)C3(C)C)CC2)C[C@H](C)N1CC(=O)Nc1cccc2c(C3CCC(=O)NC3=O)nn(C)c12 (stereo partly drawn)", "AR (androgen receptor) protein in VCaP cells (Homo sapiens, UniProt P10275)", "25 to 30%"],
  ["C[C@@H]1CN(CCO[C@H]2CC[C@H](N3C(=S)N(c4ccc(C#N)c(Cl)c4)C(=O)C3(C)C)CC2)C[C@H](C)N1CC(=O)Nc1cccc2c(C3CCC(=O)NC3=O)nn(C)c12 (stereo partly drawn) [Cmpd 3, hydrochloride]", "AR (androgen receptor) protein in VCaP cells (Homo sapiens, UniProt P10275)", "0 to 25%"],
  ["C[C@@H]1CN(CCCO[C@H]2CC[C@H](N3C(=S)N(c4ccc(C#N)c(Cl)c4)C(=O)C3(C)C)CC2)C[C@H](C)N1CC(=O)Nc1cccc2c(C3CCC(=O)NC3=O)nn(C)c12 (stereo partly drawn) [Cmpd 5, hydrochloride]", "AR (androgen receptor) protein in VCaP cells (Homo sapiens, UniProt P10275)", "30 to 50%"],
  ["C[C@@H]1C[C@H](OCC[C@H]2CC[C@H](N3C(=S)N(c4ccc(C#N)c(C(F)(F)F)c4)C(=O)C3(C)C)CC2)C[C@H](C)N1CC(=O)Nc1cccc2c(C3CCC(=O)NC3=O)nn(C)c12 (stereo partly drawn)", "AR (androgen receptor) protein in VCaP cells (Homo sapiens, UniProt P10275)", "0 to 25%"],
  ["C[C@@H]1C[C@@H](CCO[C@H]2CC[C@H](N3C(=S)N(c4cnc(C#N)c(C(F)(F)F)c4)C(=O)C3(C)C)CC2)C[C@H](C)N1CC(=O)Nc1cccc2c(C3CCC(=O)NC3=O)nn(C)c12 (stereo partly drawn)", "AR (androgen receptor) protein in VCaP cells (Homo sapiens, UniProt P10275)", "0 to 25%"],
  ["C[C@@H]1C[C@@H](CCO[C@H]2CC[C@H](N3C(=S)N(c4ccc(C#N)c(C(F)(F)F)c4)C(=O)C3(C)C)CC2)C[C@H](C)N1CC(=O)Nc1cccc2c(C3CCC(=O)NC3=O)nn(C)c12 (stereo partly drawn) [Cmpd 12, hydrochloride]", "AR (androgen receptor) protein in VCaP cells (Homo sapiens, UniProt P10275)", "0 to 25%"],
  ["C[C@@H]1CN(CCC[C@H]2CC[C@H](N3C(=S)N(c4cnc(C#N)c(C(F)(F)F)c4)C(=O)C3(C)C)CC2)C[C@H](C)N1CC(=O)Nc1cccc2c(C3CCC(=O)NC3=O)nn(C)c12 (stereo partly drawn)", "AR (androgen receptor) protein in VCaP cells (Homo sapiens, UniProt P10275)", "25 to 30%"],
  ["C[C@@H]1CN(CCO[C@H]2CC[C@H](N3C(=S)N(c4cnc(C#N)c(Cl)c4)C(=O)C3(C)C)CC2)C[C@H](C)N1CC(=O)Nc1cccc2c(C3CCC(=O)NC3=O)nn(C)c12 (stereo partly drawn) [Cmpd 6, hydrochloride]", "AR (androgen receptor) protein in VCaP cells (Homo sapiens, UniProt P10275)", "0 to 25%"]
]}
